Numbers sourced from ChEMBL document CHEMBL5230179.

List of Ki values.
SUBJECT OF TEST: Protein-glutamine gamma-glutamyltransferase (Homo sapiens)
Sequence (P21980 whole entry): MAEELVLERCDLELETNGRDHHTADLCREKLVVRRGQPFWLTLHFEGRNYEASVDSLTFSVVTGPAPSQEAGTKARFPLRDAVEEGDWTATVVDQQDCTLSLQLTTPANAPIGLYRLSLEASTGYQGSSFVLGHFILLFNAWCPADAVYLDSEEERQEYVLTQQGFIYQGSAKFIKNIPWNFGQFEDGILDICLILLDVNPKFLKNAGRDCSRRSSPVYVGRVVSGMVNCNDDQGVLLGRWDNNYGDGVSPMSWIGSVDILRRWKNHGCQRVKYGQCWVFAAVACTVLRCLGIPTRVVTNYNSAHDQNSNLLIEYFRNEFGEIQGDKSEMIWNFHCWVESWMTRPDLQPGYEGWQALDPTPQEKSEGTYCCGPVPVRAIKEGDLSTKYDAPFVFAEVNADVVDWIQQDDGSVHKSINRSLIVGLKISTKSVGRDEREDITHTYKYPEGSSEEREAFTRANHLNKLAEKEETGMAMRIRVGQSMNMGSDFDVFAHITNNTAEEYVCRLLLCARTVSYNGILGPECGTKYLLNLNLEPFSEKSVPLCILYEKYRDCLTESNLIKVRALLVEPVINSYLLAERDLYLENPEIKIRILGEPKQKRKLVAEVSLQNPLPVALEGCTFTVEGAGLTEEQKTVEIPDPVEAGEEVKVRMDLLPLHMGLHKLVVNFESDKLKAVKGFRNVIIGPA
PROTOCOL DETAILS: Irreversible inhibition of recombinant human TG2 expressed in Escherichia coli BL21 assessed as inhibition constant using AL5 as substrate by continuous chromogenic assay
Quick reminder: number only, in µM, skip the unit.

Solved cases below.
C=CC(=O)NCCCC[C@H](NC(=O)OCc1ccccc1)C(=O)N[C@H](C(=O)N1CCN(C(=O)c2cccc3ccccc23)CC1)C(C)C	5.1
C=CC(=O)NCCCC[C@H](NC(=O)Cc1ccccc1C)C(=O)N1CCN(C(=O)[C@H](Cc2ccccc2)NC(=O)c2cccc3ccccc23)CC1	8.8
C=CC(=O)NCCCC[C@H](NC(=O)OCc1ccccc1)C(=O)N[C@@H](C(=O)N1CCN(C(=O)c2cccc3ccccc23)CC1)C(C)C	3.4
C=CC(=O)NCCCC[C@H](NC(=O)Cc1ccc(F)cc1F)C(=O)N1CCN(C(=O)[C@H](C)NC(=O)c2cccc3ccccc23)CC1	5.1

Then there is this compound:
Challenge: Need Ki, item C=CC(=O)NCCCC[C@H](NC(=O)Cc1ccccc1F)C(=O)N1CCN(C(=O)[C@H](C)NC(=O)c2cccc3ccccc23)CC1
Response given: 3.3

---

# key: entry, value: Ratio
SUBJECT OF TEST: Protein-glutamine gamma-glutamyltransferase (Homo sapiens) (UniProt P21980)
Sequence (P21980 whole entry): as above
PROTOCOL DETAILS: Irreversible inhibition of recombinant human TG2 expressed in Escherichia coli BL21 assessed as ratio of Kinact/Ki using AL5 as substrate by continuous chromogenic assay

Study these solved cases before continuing.
C=CC(=O)NCCCC[C@H](NC(=O)Cc1ccccc1Br)C(=O)N1CCN(C(=O)[C@H](Cc2ccccc2)NC(=O)c2cccc3ccccc23)CC1	182 10^3/M/min
C=CC(=O)NCCCC[C@H](NC(=O)Cc1ccccc1Cl)C(=O)N1CCN(C(=O)[C@H](Cc2ccccc2)NC(=O)c2cccc3ccccc23)CC1	155 10^3/M/min
C=CC(=O)NCCCC[C@H](NC(=O)OCc1ccccc1)C(=O)N1CCN(C(=O)[C@H](CC(C)C)NC(=O)c2cccc3ccccc23)CC1	240 10^3/M/min
C=CC(=O)NCCCC[C@H](NC(=O)OCc1ccccc1)C(=O)N1CCN(C(=O)[C@H](Cc2ccccc2)NC(=O)c2cccc3ccccc23)CC1	470 10^3/M/min
C=CC(=O)NCCCC[C@H](NC(=O)Cc1ccccc1F)C(=O)N1CCN(C(=O)[C@H](C)NC(=O)c2cccc3ccccc23)CC1	502 10^3/M/min

Challenge: Fill blank: measured Ratio of the compound C=CC(=O)NCCCC[C@H](NC(=O)Cc1ccccc1C)C(=O)N1CCN(C(=O)[C@@H](C)NC(=O)c2cccc3ccccc23)CC1 is ____.
Response given: 374 10^3/M/min

Challenge: I am curious: what Ratio value has been reported for C=CC(=O)NCCCC[C@H](NC(=O)OCc1ccccc1)C(=O)N1CCN(C(=O)[C@H](C)NC(=O)c2cccc3ccccc23)CC1 ?
Response given: 610 10^3/M/min

Challenge: GET /values?readout=Ratio&item= C=CC(=O)NCCCC[C@H](NC(=O)OCc1ccccc1)C(=O)N1CCN(C(=O)[C@H](NC(=O)c2cccc3ccccc23)C(C)C)CC1
Response given: 595 10^3/M/min

Challenge: Requested read-out: Ratio. Entry: C=CC(=O)NCCCC[C@H](NC(=O)OCc1ccccc1)C(=O)N1CCN(C(=O)[C@@H](NC(=O)c2cccc3ccccc23)C(C)CC)CC1 (some centres undefined)
Response given: 300 10^3/M/min
